meta.source: patent US7989464B2

Molecular target: hmGluR1 receptor (Homo sapiens, UniProt Q13255)
Construct: expressed in transfected cells
Sequence (Q13255 19-1194): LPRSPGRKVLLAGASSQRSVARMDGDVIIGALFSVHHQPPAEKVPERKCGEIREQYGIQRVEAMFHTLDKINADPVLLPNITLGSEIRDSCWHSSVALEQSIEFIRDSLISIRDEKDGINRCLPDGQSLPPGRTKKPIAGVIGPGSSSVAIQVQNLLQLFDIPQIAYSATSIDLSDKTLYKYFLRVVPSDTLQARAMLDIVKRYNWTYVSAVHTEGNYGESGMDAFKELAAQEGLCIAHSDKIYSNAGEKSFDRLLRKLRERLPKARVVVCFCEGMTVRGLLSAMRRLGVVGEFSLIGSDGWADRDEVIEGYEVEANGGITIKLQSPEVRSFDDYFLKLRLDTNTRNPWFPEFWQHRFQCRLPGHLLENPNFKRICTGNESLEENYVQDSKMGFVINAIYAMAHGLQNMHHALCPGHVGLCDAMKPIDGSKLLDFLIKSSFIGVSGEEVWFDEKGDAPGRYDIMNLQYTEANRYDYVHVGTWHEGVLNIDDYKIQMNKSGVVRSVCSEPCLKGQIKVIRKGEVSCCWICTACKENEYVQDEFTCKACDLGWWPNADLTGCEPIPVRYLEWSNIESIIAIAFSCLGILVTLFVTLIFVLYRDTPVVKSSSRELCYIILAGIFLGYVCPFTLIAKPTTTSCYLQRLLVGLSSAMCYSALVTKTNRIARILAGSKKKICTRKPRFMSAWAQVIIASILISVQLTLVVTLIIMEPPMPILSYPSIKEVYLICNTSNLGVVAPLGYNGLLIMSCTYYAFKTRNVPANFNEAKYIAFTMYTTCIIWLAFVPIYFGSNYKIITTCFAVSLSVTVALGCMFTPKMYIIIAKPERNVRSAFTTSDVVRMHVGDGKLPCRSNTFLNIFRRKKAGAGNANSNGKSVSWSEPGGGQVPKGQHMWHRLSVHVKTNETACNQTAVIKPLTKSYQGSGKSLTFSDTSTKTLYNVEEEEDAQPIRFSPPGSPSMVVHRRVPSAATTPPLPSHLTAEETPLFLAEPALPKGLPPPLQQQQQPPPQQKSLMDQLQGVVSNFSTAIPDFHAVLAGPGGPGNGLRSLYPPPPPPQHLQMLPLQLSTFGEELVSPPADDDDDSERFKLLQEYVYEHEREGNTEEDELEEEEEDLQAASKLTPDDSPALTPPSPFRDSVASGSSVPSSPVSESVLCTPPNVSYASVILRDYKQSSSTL
Experiment: IC50 determination: intracellular calcium mobilization (FLIPR) upon Quisqualate stimulation in CHO cells stably expressing hmGluR1
Type: cell-based
Conditions: against Quisqualate 1 μM (EC80), FLIPR calcium mobilization, read-out: mGluR1 IC50
Description: A CHO cell line stably expressing hmGluR1 receptor was established. One day prior to assay, cells were split in growth media at concentration of 50,000 cells/well in a volume of 100 μl and seeded into black clear-bottom 96-well plates. After two to six hours, when cells were well attached to the plate, growth medium was replaced with assay medium (100 μL) consisting of DMEM high glucose, supplemented with GPT (1 U/mL) and Sodium pyruvate, 1 mM. […]
pIC50: −log10 of the molar value.
Property Name: pIC50

// solved cases for pIC50 follow
CCNc1ccnc2sc3c(=O)n(-c4ccc(Cl)cc4)cnc3c12 [28HZ] ... 8.91
Cc1cc(-n2cnc3c(sc4nccc(N(C)C)c43)c2=O)ccc1Br ... 8.76
CN(C)c1ccnc2sc3c(=O)n(-c4ccc(Br)c(F)c4)cnc3c12 ... 8.77
C#CCNc1ccnc2sc3c(=O)n(-c4ccc(Br)cc4)cnc3c12 [28DP] ... 8.76
O=c1c2sc3nccc(NCCCO)c3c2ncn1-c1ccc(Br)cc1 [28GQ] ... 9.18
CN(C)c1ccnc2sc3c(=O)n(-c4ccc5sccc5c4)cnc3c12 ... 8.83

[I] C=CCNc1ccnc2sc3c(=O)n(-c4ccc(OC)cc4)cnc3c12 [28DS]
[II] CNc1ccnc2sc3c(=O)n(-c4ccc(Cl)cc4)cnc3c12
Inquiry: Between the two listed entries I and II , which has its pIC50 at the higher number? Kindly state the label of the option you pick.
Reply text: II
